System: johnsongrass
Assay: Test C pre-/postemergence herbicide test
Type: in vivo, Sorghum halepense
Details: Preemergence, 125 g ai/ha; scale 0 to 100 (0 no effect, 100 complete control)
Think of 20 as a floor: if Plant response rating, Johnsongrass stands on it or above, it is Met; beneath it, Not met.

Reference set (3 entries):
| compound | label value |
| --- | --- |
| O=C1NCC(c2ccc(C(F)(F)F)cc2)C1C(=O)Nc1ccccc1F (stereo not drawn) | Met |
| O=C1NCC(c2ccc(Cl)c(F)c2)C1C(=O)Nc1cccc(F)c1F (stereo not drawn) | Not met |
| O=C1NCC(c2cccc(OC(F)(F)F)c2)C1C(=O)Nc1ccccc1F (stereo not drawn) | Not met |

Field: next compound
Query string: Is Plant response rating, Johnsongrass for O=C1NCC(c2ccc(C(F)(F)F)cc2)C1C(=O)Nc1cccc(F)c1F (stereo not drawn) at or above 20?
Result string: Met

----------
Tested on: crabgrass, large
Test: Test A pre-/postemergence herbicide test
Format: in vivo, Digitaria sanguinalis
Settings: Postemergence, 500 g ai/ha; 0 to 100 scale (0 no effect, 100 complete control)
reported property: Plant response rating, Crabgrass, Large
Give bare numbers.

| compound | Plant response rating, Crabgrass, Large |
| --- | --- |
| O=C1NCC(c2ccc(Cl)c(C(F)(F)F)c2)C1C(=O)Nc1ccccc1F (racemic) | 90 |
| O=C1NCC(c2cccc(F)c2)C1C(=O)Nc1ccccc1C(F)(F)F (racemic) | 70 |
| O=C1NCC(c2ccc(Cl)c(Cl)c2)C1C(=O)Nc1ccccc1OC(F)(F)F (racemic) | 30 |

Pending compound:
Query string: Looking for the measured Plant response rating, Crabgrass, Large of CC1(C)NC(=O)C(C(=O)Nc2ccccc2F)C1c1ccc(F)c(F)c1 (stereo not shown) , can you help?
Result string: 50

----------
System: velvetleaf
Test: Test C pre-/postemergence herbicide test
Format: in vivo, Abutilon theophrasti
Details: Postemergence; 250 g ai/ha; scale 0 to 100 (0 no effect, 100 complete control)
reported property: Plant response rating, Velvetleaf
Numbers only.

The cases that follow already have their Plant response rating, Velvetleaf on record.
| molecule | experimental target | Plant response rating, Velvetleaf |
| --- | --- | --- |
| O=C1NCC(c2ccc(F)c(F)c2)C1C(=O)Nc1ccc(F)c(F)c1F (centres unmarked) | velvetleaf | 20 |
| O=C1NCC(c2cccc(OC(F)F)c2)C1C(=O)Nc1cccc(F)c1F (centres unmarked) | velvetleaf | 35 |
| O=C1NCC(c2cc(F)c(F)cc2F)C1C(=O)Nc1cccc(F)c1F (centres unmarked) | velvetleaf | 45 |
| O=C1NCC(c2ccc(F)c(F)c2)C1C(=O)Nc1cccc(F)c1F (racemic) | velvetleaf | 30 |

Then there is this molecule:
Query string: Name the reported Plant response rating, Velvetleaf value associated with the molecule `O=C1NC[C@H](c2cccc(C(F)(F)F)c2)[C@H]1C(=O)Nc1cccc(F)c1F`
Result string: 15

----------
System: crabgrass, large
Experiment: Test E preemergence herbicide test
Assay type: in vivo, Digitaria sanguinalis
Set-up: key: 0 = no effect, 100 = complete control
Conditions: 125 g ai/ha
reported property: Plant response rating, Crabgrass, Large
Numbers only.

Below: 3 compounds and their reported Plant response rating, Crabgrass, Large.
| compound | Plant response rating, Crabgrass, Large |
| --- | --- |
| O=C1NCC(c2ccc(C(F)(F)F)cc2)C1C(=O)Nc1cccc(F)c1F (racemic) [Compound 202] | 98 |
| O=C1NC[C@H](c2cccc(C(F)(F)F)c2)[C@H]1C(=O)Nc1cccc(F)c1F | 98 |
| O=C1NCC(c2ccc(OC(F)F)cc2)C1C(=O)Nc1cccc(F)c1F (racemic) | 98 |

# ---- query compound ----
Query string: Using the record for O=C1NCC(c2ccc(C(F)(F)F)cc2)C1C(=O)Nc1cccc(F)c1F (stereo not shown) [Compound 80] , report its Plant response rating, Crabgrass, Large.
Result string: 95
